- Tested on: A498 renal
- measurement_notes: NCI-60 one-dose screen, 48 h (100 = growth as untreated, 0 = no growth, -100 = all killed)
- condition_context: 10 µM
Compounds without any hit were thinned out: in the full panel of roughly 83,000, 20% have a hit.
Decide by growth: equal to or exceeding 90% means TRUE, less means FALSE.

Worked set:
compound | assigned_category
CC[C@H](C)[C@@H]1OC(=O)C(C)(C)[C@H](O)[C@H](Cc2ccccc2)OC(=O)[C@H](C(C)C)OC(=O)[C@@H](NC(=O)c2cccc(NC=O)c2O)[C@@H](C)OC1=O | FALSE
CCOC(=O)[C@@H](C)C[C@H](Cc1ccccc1)NC(=O)c1csc([C@@H](C[C@H](C(C)C)N(C)C(=O)[C@H](CC)NC(=O)[C@H]2CCCCN2C)OC(C)=O)n1 | FALSE
Brc1ccc2c(c1)c(-c1nc(-c3c[nH]c4ncccc34)cs1)cn2CCN1CCCCC1 | TRUE
O=[N+]([O-])c1ccc(OP(=O)(CCl)N(CCCl)CCCl)cc1 (stereo unspecified) | TRUE
COc1cc(/C=C/[N+](=O)[O-])c([N+](=O)[O-])cc1OC | TRUE
Nc1ncnc2n[nH]nc12 | FALSE
CC(=O)OCc1cc[c]([Hg][Cl])o1 | TRUE
C=CCCCCCCCCC(=O)[O-].C=CCCCCCCCCC(=O)[O-].[Zn+2] | TRUE

Test whether the compound "Nc1ccc2c(c1)oc1ccccc12" records growth of 90% or higher.
TRUE

Similarly, CC12CCC(O)CC1=CCC1C2CCC2(C)C(O)CCC12 (stereo unspecified) ?
FALSE

Similarly, "ClCCN(CCCl)Cc1ccc(Nc2ccnc3cc(Cl)ccc23)cc1" ?
FALSE

====

- Test system: HT29 colon
- measurement_notes: NCI-60 one-dose screen, 48 h (100 = growth as untreated, 0 = no growth, -100 = all killed)
- condition_context: 10 µM unless noted
About 83,000 compounds went through this panel and 20% of them were active in at least one assay; those are over-represented in the sample as a whole.
value_type: growth (%)
Report the value in % with no unit label.

compound | growth / %
O=[N+]([O-])c1cc([N+](=O)[O-])c(Nn2c3ccccc3c3ccccc32)c([N+](=O)[O-])c1 | -4.7
Nc1nc([Se])c2ncn(C3OC(CO)C(O)C3O)c2n1 (centres undefined) | 55.2
Fc1cccc(NCOOC2(OOCNc3cccc(F)c3)CCCCC2)c1 | 96
CN1C(=O)C23CC4(C56CC78SSC(CO)(C(=O)N7C5Nc5ccccc56)N(C)C8=O)c5ccccc5NC4N2C(=O)C1(CO)SS3 (centres undefined) | -77.3
CC(=O)[O][Hg][c]1c(N)c(C)cc(C)c1F | 10

Can you share its growth? I mean this compound: O=C1Nc2ccccc2C2c3cccn3-c3ccccc3CN12 (centres undefined)
11.3

Similarly, "c1cnc2[nH]cc(-c3csc(-c4cn(CCCCN5CCOCC5)c5ccccc45)n3)c2c1" ?
-44.6

Similarly, "CC[C@]12C=CCN3CC[C@]4(C(=C(C(=O)OC)C1)Nc1cc(OC)c(OC(C)=O)cc14)[C@@H]32" ?
0.643

Similarly, "COc1ccc2nc(NC(=O)COc3cc(/C=C\c4cc(OC)c(OC)c(OC)c4)ccc3OC)sc2c1" ?
10.3

====

- System: HOP-92 NSCLC
- measurement_notes: NCI-60 one-dose screen, 48 h (100 = growth as untreated, 0 = no growth, -100 = all killed)
- condition_context: 10 µM unless noted
The panel holds about 83,000 compounds, 20% with a hit somewhere; the sample as a whole holds those more often.
value_type: growth (%)
Report the value in % with no unit label.

compound_smiles | units_label | recorded_measurement
O=C(Nc1ccncc1F)c1cn(CC2CC2)c2ccccc12 | % | 123
CCn1nccc1NC(=O)C(=O)c1cn(Cc2ccc(F)cc2)c2cccc(OC)c12 | % | 46.6
c1cnc2[nH]cc(-c3csc(-c4cn(CCCCN5CCCCC5)c5ccccc45)n3)c2c1 | % | 48.3
O=C(NCCN1CC1)C(=O)NCCN1CC1 | % | 103
CC(=O)O[C@H](C[C@H](C(C)C)N(C)C(=O)[C@@H](NC(=O)[C@H]1CCCCN1C)C(C)(C)C)c1nc(C(=O)N[C@@H](Cc2ccccc2)C[C@H](C)C(=O)O)cs1 | % | 35.3

Can you share its growth? I mean this compound: "CNC(=O)Oc1ccc(C(C)(C)C)cc1OC(=O)NC"
95.2

Similarly, "CC1=C([Te]c2ccc(O)cc2)C(=O)c2ccccc2C1=O" ?
-56.5

Similarly, "Cc1cc(N(CCCl)CCCl)ccc1/C=N\NC(=O)c1ccncc1" ?
97

Similarly, "COC(=O)[C@]12CCC(C)(C)C[C@H]1[C@H]1C(=O)C[C@@H]3[C@@]4(C)C[C@@]5(CC(C)(C)[C@@H]4CC[C@@]3(C)[C@]1(C)CC2)OO[C@@](C)(C(F)(F)F)O5" ?
98.8

====

- System: SK-MEL-2 melanoma
- measurement_notes: NCI-60 one-dose screen, 48 h
- condition_context: 10 µM unless noted
The panel holds about 83,000 compounds, 20% with a hit somewhere; the sample as a whole holds those more often. Activity calls are given as the source filed them. The calls were made as follows: active = growth percent below 10; inactive = the rest.
Respond using exactly one of the listed classes: t = active, f = inactive

Worked set:
compound | assigned_category
O=C1C=C(N2C3C4CCC(C4)C32)C(=O)C=C1c1ccccc1 (configuration not stated) | f
O=C1CNC(c2ccccc2)c2cc(Cl)ccc2N1 (configuration not stated) | f
Fc1ccc2c(c1)c(-c1nc(-c3c[nH]c4ncccc34)cs1)cn2CCN1CCOCC1 | f

Record lookup: outcome of this test for CC(=O)OC1C(OC/C2=C/C3[C@@H](C(C)C)CC=C(C)[C@@H]3CC(OC(=O)/C=C/c3cn(C)cn3)[C@]3(C)C=C[C@@]2(O)O3)OCC(O)C1O (some centres not stated) ?
f

Similarly, CCOC(=O)CCC(NC(=O)C(Cc1ccc(N(CCCl)CCCl)cc1)NC=O)C(=O)OCC (configuration not stated) ?
t

Similarly, C1CCC([PH+](C2CCCCC2)C2CCCCC2[PH+](C2CCCCC2)C2CCCCC2)CC1.[Au].[CH-]1CCCCC1CC1CCCC[N-]1 (configuration not stated) ?
t

====

- Tested on: 786-0 renal
- measurement_notes: NCI-60 one-dose screen, 48 h (100 = growth as untreated, 0 = no growth, -100 = all killed)
- condition_context: 10 µM unless noted
The panel holds about 83,000 compounds, 20% with a hit somewhere; the sample as a whole holds those more often.
Reported growth by item:
Report the value in % with no unit label.

Consider the reported growth for these molecules:
molecule | growth (%)
NC(=O)CNc1ccc([As]=[As]c2ccc(NCC(N)=O)cc2)cc1 (stereo not drawn) | 29.7
CCCC(=O)O[C@@H]1C[C@H]2C[C@@H](O[C@@H]3O[C@@H](C)[C@@H](O)[C@@H](O)[C@H]3OC)C[C@@H](C[C@@H](C)/C=C/C=C\C[C@@H]3O[C@@H](C[C@@H]3C)[C@@H](O)C[C@H]3C[C@@]1(O)C(=O)O3)O2 | 76.6

From here, focus on the item given below.
Can you share its growth? I mean this molecule: "CC(=O)Nc1nc2c(s1)CC[C@@]1(C)C2=CC[C@H]2[C@@H]3CC[C@H](O)[C@@]3(C)CC[C@@H]21"
35.7

====

- Tested on: ACHN renal
- measurement_notes: NCI-60 one-dose screen, 48 h (100 = growth as untreated, 0 = no growth, -100 = all killed)
- condition_context: 10 µM unless noted
This is part of a sample that, as a whole, favours compounds with a hit. Of some 83,000 tested, about 20% had one in any assay.
Reported growth by item:
Report the value in % with no unit label.

compound | assay_target | units_label | recorded_measurement
CN(C)CC(C(=O)Cc1ccccc1)c1ccccc1 (configuration not stated) | ACHN renal | % | 102
O=C(CCCCCCC(=O)Nc1ccc(N(CCCl)CCCl)cc1)NO | ACHN renal | % | 16.7
Clc1cccc(N2COOC3(OOC2)C2CC4CC(C2)CC3C4)c1 | ACHN renal | % | 62.1

Can you share its growth? I mean this compound: "CC1(C)N=C(N)N=C(N)N1c1ccc(CCCCc2ccc(Cl)c(S(=O)(=O)F)c2)c(Cl)c1"
28.2

Similarly, O=C([O][Hg][CH2]C1OCCOC1[CH2][Hg][O]C(=O)c1ccccc1)c1ccccc1 (configuration not stated) ?
-99.5

Similarly, OCCNC(Cc1ccccc1)c1ccc2c(c1)OCO2 (configuration not stated) ?
106

Similarly, "CC1=C(CNO)C2=C(C)C3(CC3)[C@@](C)(O)C(=O)C2=C1" ?
-48.3

Similarly, "COc1cccc2c1c(C(=O)C(=O)Nc1cc(C)no1)cn2Cc1ccc(F)cc1" ?
88.6

Similarly, "CCCCCCCCOC(=O)CCN1CC1" ?
103

Similarly, "CC(=O)[O][Hg][c]1c(N)c(C)cc(C)c1F" ?
62.9

Similarly, "Clc1cc(N2CC2)nc(N2CC2)n1" ?
22.2
